System: Escherichia coli TOP10;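 note: peptides expressed intracellularly from a pBAD plasmid library in pooled LB shake-flask culture, induced with 0.3% L-arabinose, DNA abundance read by NGS, three biological replicates, DESeq2 with apeglm shrinkage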
Assay Protocol: shrunken log2 fold change of peptide-encoding DNA abundance (4.5 h post-induction vs induction); higher = less antimicrobial activity (less host growth inhibition)
Recorded Conditions: time post-induction: 4.5 h; library: site-saturation at positions 5, 18, 19, 20
Field: class. Source value: shrunken log2 fold change. Ranges: lower level (below -0.07), middle level (-0.07 to below 0.1), upper level (0.1 or more)

{"columns": ["Seq", "Assigned Class"],
 "data": [
  ["RRIRMRPPRLPRPRPRPIHTPRP", "middle level"],
  ["RRIRHRPPRLPRPRPRPLMFPRP", "lower level"],
  ["RRIRGRPPRLPRPRPRPPGYPRP", "upper level"],
  ["RRIRDRPPRLPRPRPRPCVAPRP", "upper level"],
  ["RRIRVRPPRLPRPRPRPKVSPRP", "middle level"],
  ["RRIRKRPPRLPRPRPRPIIAPRP", "middle level"],
  ["RRIRKRPPRLPRPRPRPLHVPRP", "middle level"],
  ["RRIRYRPPRLPRPRPRPDKTPRP", "middle level"],
  ["RRIRQRPPRLPRPRPRPCNLPRP", "middle level"],
  ["RRIRKRPPRLPRPRPRPEDPPRP", "upper level"],
  ["RRIRVRPPRLPRPRPRPVGFPRP", "upper level"],
  ["RRIRNRPPRLPRPRPRPKKVPRP", "lower level"],
  ["RRIRLRPPRLPRPRPRPCFTPRP", "lower level"],
  ["RRIRLRPPRLPRPRPRPRSNPRP", "upper level"],
  ["RRIRWRPPRLPRPRPRPDHTPRP", "middle level"],
  ["RRIRDRPPRLPRPRPRPWIPPRP", "middle level"],
  ["RRIRLRPPRLPRPRPRPLDWPRP", "upper level"],
  ["RRIRRRPPRLPRPRPRPQVAPRP", "upper level"],
  ["RRIRMRPPRLPRPRPRPRAWPRP", "upper level"],
  ["RRIRVRPPRLPRPRPRPLHIPRP", "lower level"],
  ["RRIRTRPPRLPRPRPRPNRGPRP", "lower level"],
  ["RRIRVRPPRLPRPRPRPEIRPRP", "upper level"],
  ["RRIRVRPPRLPRPRPRPKMTPRP", "middle level"],
  ["RRIRGRPPRLPRPRPRPICKPRP", "upper level"],
  ["RRIRCRPPRLPRPRPRPDPPPRP", "upper level"],
  ["RRIRWRPPRLPRPRPRPLHGPRP", "upper level"],
  ["RRIRNRPPRLPRPRPRPHENPRP", "lower level"],
  ["RRIRFRPPRLPRPRPRPTSQPRP", "middle level"],
  ["RRIRSRPPRLPRPRPRPCRYPRP", "lower level"],
  ["RRIRKRPPRLPRPRPRPVRWPRP", "upper level"],
  ["RRIRLRPPRLPRPRPRPWHKPRP", "lower level"],
  ["RRIRSRPPRLPRPRPRPFFSPRP", "lower level"],
  ["RRIRGRPPRLPRPRPRPNYDPRP", "upper level"],
  ["RRIRARPPRLPRPRPRPNHNPRP", "lower level"],
  ["RRIRSRPPRLPRPRPRPQKNPRP", "lower level"],
  ["RRIRVRPPRLPRPRPRPDKKPRP", "upper level"],
  ["RRIRCRPPRLPRPRPRPHNRPRP", "lower level"],
  ["RRIRFRPPRLPRPRPRPVAMPRP", "middle level"],
  ["RRIRARPPRLPRPRPRPSCNPRP", "lower level"],
  ["RRIRCRPPRLPRPRPRPWADPRP", "middle level"],
  ["RRIRIRPPRLPRPRPRPCWEPRP", "lower level"],
  ["RRIRARPPRLPRPRPRPVACPRP", "upper level"],
  ["RRIRRRPPRLPRPRPRPVMVPRP", "lower level"],
  ["RRIRMRPPRLPRPRPRPGETPRP", "middle level"],
  ["RRIRHRPPRLPRPRPRPHYYPRP", "lower level"],
  ["RRIRCRPPRLPRPRPRPKIKPRP", "lower level"],
  ["RRIRQRPPRLPRPRPRPIYEPRP", "middle level"],
  ["RRIRARPPRLPRPRPRPLMLPRP", "upper level"],
  ["RRIRWRPPRLPRPRPRPNESPRP", "middle level"],
  ["RRIRWRPPRLPRPRPRPYRSPRP", "middle level"],
  ["RRIRHRPPRLPRPRPRPTKVPRP", "middle level"],
  ["RRIRLRPPRLPRPRPRPASGPRP", "upper level"]
]}
